Listed below: protein stability index values for each entry.
B1: DLC1 (parent)
chain: AEVVKIRDSFSNQNTETKDTKSR

- Variants of: B1
- MEASUREMENT DESCRIPTION: protein stability index of a GFP-peptide fusion (GPS, HEK-293T) (PSI 1-6); higher = more stable;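 further: lentivirally expressed fusions sorted by FACS into six bins by GFP to DsRed ratio, PSI derived from sequencing read proportions per bin multiplied by bin number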
- TEST CONTEXT: c terminus: native
Enter a number only.

Example entries begin here.
>  <INPUT SEQUENCE>
AEVVKIRDSFCNQNTETKDTKSR [S11C]

>  <OBSERVED MEASUREMENT>
2.58

$$$$
>  <INPUT SEQUENCE>
AEVVKIRDSFSNQNTETKDTGSR [K21G]

>  <OBSERVED MEASUREMENT>
5.44

$$$$
>  <INPUT SEQUENCE>
AEVVKIRDSFSNQRTETKDTKSR [N14R]

>  <OBSERVED MEASUREMENT>
2.48

$$$$

Ask: protein stability index lookup needed for AEVVKIRDRFSNQNTETKDTKSR [S9R] , thanks.
Result: 2.53

Ask: # lookup: protein stability index of AEVVKIRDSFSNQNTETKDTKFR [S22F]
Result: 4.11

Sourced from the supplement of paper PMC10567573
